# tested system: Mitogen-activated protein kinase 8 (Homo sapiens)
# measurement description: Inhibition of His-tagged JNK1

[
  {
    "compound": "CCN(CC)CC(=O)N1CCc2cc(OC)c(Nc3nc(Nc4cccc(F)c4C(N)=O)c4cc[nH]c4n3)cc21",
    "units text": "nM",
    "IC50": 1000
  },
  {
    "compound": "COc1cc(C)c(N(C)C(=O)CN(C)C)cc1Nc1nc(Nc2cccc(F)c2C(N)=O)c2cc[nH]c2n1 [GSK-2219385A]",
    "units text": "nM",
    "IC50": 10000
  },
  {
    "compound": "CCCN1CCC(Oc2ccc(OC)c(Nc3nc(Nc4cccc(F)c4C(N)=O)c4cc[nH]c4n3)c2)CC1",
    "units text": "nM",
    "IC50": 1260
  },
  {
    "compound": "COc1cc2c(cc1Nc1nc(Nc3cccc(F)c3C(N)=O)c3cc[nH]c3n1)N(C(=O)CN1CCC1)CC2",
    "units text": "nM",
    "IC50": 2000
  }
]

---

# tested system: Mitogen-activated protein kinase 8 (Homo sapiens, UniProt P45983)
# Sequence (P45983 whole entry): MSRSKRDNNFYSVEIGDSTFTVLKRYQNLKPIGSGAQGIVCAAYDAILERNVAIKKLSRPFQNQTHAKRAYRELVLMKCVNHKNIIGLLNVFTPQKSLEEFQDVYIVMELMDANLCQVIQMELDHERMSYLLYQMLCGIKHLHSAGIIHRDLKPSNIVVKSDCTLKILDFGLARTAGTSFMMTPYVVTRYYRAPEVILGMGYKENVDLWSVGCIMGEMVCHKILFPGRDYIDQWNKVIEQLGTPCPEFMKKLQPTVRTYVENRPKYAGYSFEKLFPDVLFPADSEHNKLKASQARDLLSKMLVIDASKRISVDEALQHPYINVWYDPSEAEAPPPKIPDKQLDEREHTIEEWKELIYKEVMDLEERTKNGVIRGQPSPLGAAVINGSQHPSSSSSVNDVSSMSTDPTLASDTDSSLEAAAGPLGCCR
# measurement description: Inhibition of His-tagged JNK1
pIC50: −log10 of the molar value.

[
  {
    "compound": "COc1cc2c(cc1Nc1nc(Nc3cccc(F)c3C(N)=O)c3cc[nH]c3n1)N(C(C)=O)CCC2",
    "pIC50": 5.10
  },
  {
    "compound": "COc1cc(C)c(NC(=O)CN(C)C)cc1Nc1nc(Nc2cccc(F)c2C(N)=O)c2cc[nH]c2n1 [GSK-2213727A]",
    "pIC50": 5.70
  },
  {
    "compound": "COc1cc(Cl)c(OCCCN(C)C)cc1Nc1nc(Nc2cccc(F)c2C(N)=O)c2cc[nH]c2n1",
    "pIC50": 5.90
  },
  {
    "compound": "COc1cc2c(cc1Nc1nc(Nc3cccc(F)c3C(N)=O)c3cc[nH]c3n1)N(C(=O)CCN(C)C)CC2",
    "pIC50": 6.10
  }
]

---

# tested system: Insulin-like growth factor 1 receptor (Homo sapiens)
# Sequence (P08069 31-736 limits assumed): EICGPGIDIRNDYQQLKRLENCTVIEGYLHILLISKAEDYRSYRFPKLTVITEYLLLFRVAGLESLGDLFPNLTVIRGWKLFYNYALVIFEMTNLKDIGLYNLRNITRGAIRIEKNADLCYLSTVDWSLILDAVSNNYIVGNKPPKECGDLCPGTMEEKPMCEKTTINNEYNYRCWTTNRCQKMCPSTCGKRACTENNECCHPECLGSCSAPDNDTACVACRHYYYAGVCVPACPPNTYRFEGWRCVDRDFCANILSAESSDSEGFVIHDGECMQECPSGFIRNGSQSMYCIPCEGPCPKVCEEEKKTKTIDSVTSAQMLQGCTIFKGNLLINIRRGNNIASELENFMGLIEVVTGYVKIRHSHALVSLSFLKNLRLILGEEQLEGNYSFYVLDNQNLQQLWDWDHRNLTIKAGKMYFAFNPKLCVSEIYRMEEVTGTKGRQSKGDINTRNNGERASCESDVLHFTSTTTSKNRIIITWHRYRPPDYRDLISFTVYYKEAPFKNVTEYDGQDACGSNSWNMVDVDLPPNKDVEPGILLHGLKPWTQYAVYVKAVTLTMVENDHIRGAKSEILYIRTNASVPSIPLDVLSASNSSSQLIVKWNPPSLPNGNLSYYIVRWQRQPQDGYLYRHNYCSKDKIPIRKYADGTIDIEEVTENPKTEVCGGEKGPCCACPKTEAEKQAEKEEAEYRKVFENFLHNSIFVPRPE
# Sequence (P08069 741-1367 limits assumed): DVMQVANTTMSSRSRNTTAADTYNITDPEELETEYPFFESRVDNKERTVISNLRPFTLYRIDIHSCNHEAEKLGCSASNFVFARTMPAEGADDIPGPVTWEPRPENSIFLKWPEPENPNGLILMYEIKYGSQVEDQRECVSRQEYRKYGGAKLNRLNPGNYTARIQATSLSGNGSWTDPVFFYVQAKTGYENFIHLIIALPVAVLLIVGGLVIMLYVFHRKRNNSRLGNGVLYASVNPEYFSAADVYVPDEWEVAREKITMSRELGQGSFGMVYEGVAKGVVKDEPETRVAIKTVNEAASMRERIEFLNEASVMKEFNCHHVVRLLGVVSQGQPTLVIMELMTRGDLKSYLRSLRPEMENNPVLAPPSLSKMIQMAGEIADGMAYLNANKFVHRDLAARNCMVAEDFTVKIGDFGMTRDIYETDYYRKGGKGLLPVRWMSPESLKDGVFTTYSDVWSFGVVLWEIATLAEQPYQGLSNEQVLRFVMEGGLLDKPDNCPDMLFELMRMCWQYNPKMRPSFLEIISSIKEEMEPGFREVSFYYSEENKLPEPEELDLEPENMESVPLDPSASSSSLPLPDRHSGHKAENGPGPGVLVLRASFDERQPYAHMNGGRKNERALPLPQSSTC
# measurement description: Inhibition of IGF-1R
outcome measure: log10 IC50 (log10 of the value in nM)

[
  {
    "compound": "COc1cc2c(cc1Nc1nc(Nc3cccc(F)c3C(N)=O)c3cc[nH]c3n1)N(C(=O)CN1CCOCC1)CC2",
    "log10 IC50": 1.11
  },
  {
    "compound": "COc1cc2c(cc1Nc1nc(Nc3cccc(F)c3C(N)=O)c3cc[nH]c3n1)N(C(=O)Cn1ccnc1)CC2",
    "log10 IC50": 1.51
  },
  {
    "compound": "CCN(CC)CC(=O)N1CCc2cc(OC)c(Nc3nc(Nc4cccc(F)c4C(N)=O)c4cc[nH]c4n3)cc21",
    "log10 IC50": 0.30
  },
  {
    "compound": "COc1cc2c(cc1Nc1nc(Nc3cccc(F)c3C(N)=O)c3cc[nH]c3n1)N(C(=O)CN(C)OC)CC2",
    "log10 IC50": 1.70
  },
  {
    "compound": "COc1cc2c(cc1Nc1nc(Nc3cccc(F)c3C(N)=O)c3cc[nH]c3n1)N(C(=O)CN1CCCCC1)CCC2",
    "log10 IC50": 0.00
  },
  {
    "compound": "COc1cc2c(cc1Nc1nc(Nc3cccc(F)c3C(N)=O)c3cc[nH]c3n1)N(C(C)=O)CC2",
    "log10 IC50": 0.78
  },
  {
    "compound": "COc1cc(Cl)c(OCCCN(C)C)cc1Nc1nc(Nc2cccc(F)c2C(N)=O)c2cc[nH]c2n1",
    "log10 IC50": 1.11
  },
  {
    "compound": "CCCN1CCC(Oc2cc(Nc3nc(Nc4cccc(F)c4C(N)=O)c4cc[nH]c4n3)c(OC)cc2Cl)CC1 [GSK-1713088A]",
    "log10 IC50": 1.40
  }
]

All values here come from ChEMBL document CHEMBL1154536.
